measurement.type: melting point

# molecule, measurement.type, endpoint.result
records = [
    ("c1ccc(CNc2nc3c(-c4ccsc4)cnn3c3ccccc23)cc1", "melting point", "176 to 177 °C"),
    ("Nc1ccccc1COc1nc2c(-c3ccsc3)cnn2c2ccccc12 [21b]", "melting point", "125 to 126 °C"),
    ("C[S+]([O-])c1ccc(COc2nc3c(C(N)=O)cnn3c3ccccc23)cc1 (stereo not shown)", "melting point", "225 to 226 °C"),
    ("NC(=O)c1cnn2c1nc(OCc1ccc(S(N)(=O)=O)cc1)c1ccc(Cl)cc12 (hydrate or solvate) [23c]", "melting point", "177 to 180 °C"),
    ("N#Cc1cnn2c1[nH]c(=O)c1ccc([N+](=O)[O-])cc12", "melting point", "280 to 283 °C"),
    ("COc1cccc(COc2nc3c(C(N)=O)cnn3c3ccccc23)c1 [13h]", "melting point", "210 to 212 °C"),
    ("O=c1nc[nH]c2c1cnc1ccnn12 [53b]", "melting point", "> 300 °C"),
    ("CNc1nc2c(C(N)=O)cnn2c2cc([N+](=O)[O-])ccc12", "melting point", "> 300 °C"),
    ("N#Cc1cnn2c1[nH]c(=O)c1cc([N+](=O)[O-])ccc12", "melting point", "> 295 °C"),
    ("COc1nc2c(C(N)=O)cnn2c2cc(Cl)ccc12 [23a]", "melting point", "288 to 290 °C"),
]

---

Listing: melting point of selected molecules
measurement.type: melting point

# molecule, endpoint.result
data = [
    ("CSc1ccc(Cn2c(=O)c3ccccc3n3ncc(C(N)=O)c23)cc1 [14c]", "276 to 279 °C"),
    ("C[S+]([O-])c1ccc(Cn2c(=O)c3ccccc3n3ncc(I)c23)cc1 (centres unmarked)", "198 to 201 °C"),
    ("CCOC(=O)c1cnn2c3ccccc3c(=O)n(Cc3ccc(S(N)(=O)=O)cc3)c12", "224 to 226 °C"),
    ("NC(=O)c1cnn2c1nc(OCc1ccccc1)c1ccccc12 [13b]", "208 to 209 °C"),
    ("CCOC(=O)c1cnn2c1ncc1c(=O)nc[nH]c12 [53a]", "> 300 °C"),
]

---

# tested.on: JNK3 (Homo sapiens, UniProt P53779)
# Sequence (P53779 whole entry): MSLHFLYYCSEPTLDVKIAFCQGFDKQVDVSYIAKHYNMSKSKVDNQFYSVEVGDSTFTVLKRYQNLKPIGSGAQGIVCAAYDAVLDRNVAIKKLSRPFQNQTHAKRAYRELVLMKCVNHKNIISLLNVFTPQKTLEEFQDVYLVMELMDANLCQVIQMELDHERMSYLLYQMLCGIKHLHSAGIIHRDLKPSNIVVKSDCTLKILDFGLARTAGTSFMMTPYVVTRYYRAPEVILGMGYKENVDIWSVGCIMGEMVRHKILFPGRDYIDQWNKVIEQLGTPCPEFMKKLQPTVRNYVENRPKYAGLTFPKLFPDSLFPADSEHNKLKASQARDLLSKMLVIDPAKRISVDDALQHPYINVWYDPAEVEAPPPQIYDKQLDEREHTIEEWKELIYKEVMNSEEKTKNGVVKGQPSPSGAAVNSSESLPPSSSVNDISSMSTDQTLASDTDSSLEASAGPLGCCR
# experimental.protocol: KINOMEscan ATP site-dependent binding assay
# conditions: duplicate
Listing: Kd of selected compounds
measurement.type: Kd (µM)

# compound, units.text, endpoint.result
rows = [
    ("NC(=O)c1cnn2c1nc(OCc1ccc(S(N)(=O)=O)cc1)c1ccccc12 [13i]", "µM", 9),
    ("C[S+]([O-])c1ccc(COc2nc3c(C(N)=O)cnn3c3ccccc23)cc1 (centres unmarked) [compound 16]", "µM", 10.4),
]

---

measurement.type: melting point

# compound, endpoint.result
data = [
    ("COc1nc2c(C(N)=O)cnn2c2cc(N)ccc12 [46a]", "> 300 °C"),
    ("CNc1nc2c(C#N)cnn2c2cc([N+](=O)[O-])ccc12 [42a]", "> 300 °C"),
    ("NC(=O)c1cnn2c1nc(OCc1ccccc1Cl)c1ccccc12 [13d]", "227 to 229 °C"),
    ("NC(=O)c1cnn2c1nc(OCc1ccc(Br)cc1)c1ccccc12 [13f]", "243 to 244 °C"),
    ("CNc1nc2c(C(N)=O)cnn2c2cc(N)ccc12 [46c]", "> 300 °C"),
    ("NC(=O)c1cnn2c1nc(OCc1ccc(S(N)(=O)=O)cc1)c1ccccc12 [13i]", "167 to 168 °C"),
    ("N#Cc1cnn2c1nc(Nc1ccc(N)cc1)c1ccc([N+](=O)[O-])cc12 [42c]", "> 295 °C"),
    ("N#Cc1cnn2c1nc(Nc1ccc(N)cc1)c1cc([N+](=O)[O-])ccc12 [42d]", "> 295 °C"),
    ("CSc1ccc(Cn2c(=O)c3ccccc3n3ncc(C#N)c23)cc1 (hydrate or solvate) [7e]", "189 to 192 °C"),
    ("COc1nc2c(C(N)=O)cnn2c2ccc([N+](=O)[O-])cc12 [33b]", "269 to 271 °C"),
    ("CN(C)/C=N/C(=O)c1cnn2c1[nH]c(=O)c1ccc(Cl)cc12 [compound 26]", "288 to 290 °C"),
    ("Cn1c(=O)c2ccc(N)cc2n2ncc(C#N)c12 [compound 48]", "286 to 288 °C"),
    ("CCOC(=O)c1cnn2c1[nH]c(=O)c1cc([N+](=O)[O-])ccc12 [4d]", "217 to 220 °C"),
    ("CCOC(=O)c1cnn2c1nc(Nc1ccc(N)cc1)c1cc([N+](=O)[O-])ccc12 [compound 40]", "269 to 271 °C"),
    ("CNc1nc2c(C#N)cnn2c2cc(N)ccc12 [46b]", "> 300 °C"),
    ("Cc1ccccc1COc1nc2c(C(N)=O)cnn2c2ccccc12 [13g]", "226 to 227 °C"),
    ("CCOC(=O)c1cnn2c1[nH]c(=O)c1ccc([N+](=O)[O-])cc12 [4c]", "195 to 197 °C"),
    ("c1ccc(COc2nc3c(-c4ccsc4)cnn3c3ccccc23)cc1 [21a]", "179 to 181 °C"),
    ("CSc1ccc(Cn2c(=O)c3ccccc3n3nccc23)cc1 (hydrate or solvate) [7f]", "137 to 139 °C"),
    ("COc1nc2c(C#N)cnn2c2cc(N)ccc12 [compound 47, 8-amino-5-methoxy-PQ-3-carbonitrile]", "> 300 °C"),
]

---

# compound, melting point
rows = [
    ("COc1nc2c(C(N)=O)cnn2c2ccccc12 [13a]", "246 to 247 °C"),
    ("Cn1c(=O)c2ccc(N)cc2n2ncc(C(N)=O)c12", "> 300 °C"),
    ("NC(=O)c1cnn2c1nc(OCc1cccc(Cl)c1)c1ccccc12 [13e]", "242 to 245 °C"),
]

---

# tested.on: JNK1 (Homo sapiens)
# Sequence (P45983 whole entry): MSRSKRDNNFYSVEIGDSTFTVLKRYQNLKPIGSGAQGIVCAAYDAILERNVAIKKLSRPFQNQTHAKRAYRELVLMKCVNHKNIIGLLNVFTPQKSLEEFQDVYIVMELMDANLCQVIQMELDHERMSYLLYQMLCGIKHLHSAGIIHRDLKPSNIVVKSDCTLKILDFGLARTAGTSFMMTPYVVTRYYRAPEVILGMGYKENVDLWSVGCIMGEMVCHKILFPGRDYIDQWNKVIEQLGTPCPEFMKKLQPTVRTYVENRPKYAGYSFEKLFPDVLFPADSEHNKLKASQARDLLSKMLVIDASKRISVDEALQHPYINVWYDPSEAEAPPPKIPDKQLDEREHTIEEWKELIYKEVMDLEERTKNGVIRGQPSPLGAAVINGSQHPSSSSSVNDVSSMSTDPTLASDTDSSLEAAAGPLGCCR
# experimental.protocol: KINOMEscan ATP site-dependent binding assay
# conditions: duplicate
Listing: Kd of selected compounds

# compound, tested.on, Kd, µM
records = [
    ("C[S+]([O-])c1ccc(COc2nc3c(C(N)=O)cnn3c3ccccc23)cc1 (centres unmarked) [compound 16]", "JNK1 (Homo sapiens)", 17),
    ("NC(=O)c1cnn2c1nc(OCc1ccc(S(N)(=O)=O)cc1)c1ccccc12 [13i]", "JNK1 (Homo sapiens)", 10.9),
]
